test: Primary fluorescence-based thiol-reactive (MSTI) qHTS assay for identification of artifact compounds. (AID 1845221); conditions: MSTI thiol-reactivity probe, 1 h; series mostly up to 53.8 µM; also: nearly all actives have a fitted effect of over 65% in size
Results filed as inconclusive are left out. The source made the active and inactive calls. Calls follow the shape of the dose curve; as a rule, active = well fitted inhibition curve with a large enough effect; inconclusive = small, poorly fitted or top-dose-only effect; inactive = no such curve, though single readings can be large or run the other way.
Outcome codes: TRUE (active), FALSE (inactive)

- Compound: "CCCO[C@@H]1O[C@H](CO)[C@@H](O)[C@H](O)[C@H]1O[C@@H]1OC[C@@H](O)[C@H](O)[C@H]1O"
  Class: "FALSE"
- Compound: "COc1ccc(CC(=O)NCc2ccccc2-c2ccccc2C(=O)NCCc2cccnc2)cc1"
  Class: "FALSE"
- Compound: "COc1ccc(C2(O)c3ccccc3NC(=O)C2OC)cc1 (stereo not given)"
  Class: "FALSE"
- Compound: "O=C(Cc1ccc(Cl)cc1)Nc1cnccc1C(=O)O"
  Class: "FALSE"
- Compound: "CCC(C)/C=C(C)/C=C/C1=CC2=C(Cl)C(=O)C(C)(OC(C)=O)C(=O)C2=CN1C(CCC(=O)O)C(=O)O (stereo not given)"
  Class: "TRUE"

###

tested on: NIH3T3; test: qHTS assay to identify novel small-molecules to repurpose for Merkel cell carcinoma treatment (AID 1296009); settings: MCC and control cell lines, CellTiter-Glo viability, 72 h; at 44.8 µM (top of the series) unless noted; also: nearly all actives have a fitted effect of over 60% in size
Records with an inconclusive call do not appear. Activity calls are given as the source filed them. The call rests on the fitted dose curve; in most records, active means well fitted inhibition curve with a large enough effect; inconclusive means small, poorly fitted or top-dose-only effect; inactive means flat fitted curve, though single readings scatter. *1 amine or outer side, *2 acyl side, *3 side chain or, on linkers, in order; H or OH if unused. Where a SMILES comes first, the peptide text is derived from it. [ ]: non-standard residue; d: D form. X13 = O=C(C(CC(O)CO)O[*:1])[*:2]; NMeV = CN[CH](C(=O)O)C(C)C; NMeA = CN[CH](C)C(=O)O; βAla = NCCC(=O)O
Observed property: outcome

- Molecule: "C=C[C@H]1[C@H](O[C@@H]2O[C@H](CO)[C@@H](O)[C@H](OC(=O)/C=C/c3ccc(O)c(OC)c3)[C@H]2O)OC=C2C(=O)OCC[C@]21O"
  Observed property: "outcome"
  Result: "inactive [at 17.4 µM]"
- Molecule: "C[C@@H]1O[C@@H](OC(=O)Cc2ccccc2)[C@H](O)[C@H](O)[C@H]1O"
  Observed property: "outcome"
  Result: "inactive"
- Molecule: "O=C(O)c1ccnc2cc(-c3nc4ccccc4n3CCN3CCCCC3)sc12"
  Observed property: "outcome"
  Result: "inactive"
- Molecule: "CCC(C)C1NC(=O)C2CCCN2C(=O)C(CC(O)CO)OC(=O)CCNC(=O)C(C)N(C)C(=O)C(C(C)C)N(C)C1=O (centres undefined) (cyclo([X13]PI[NMeV][NMeA][βAla]); configuration not given here)"
  Observed property: "outcome"
  Result: "inactive [at 17.4 µM]"

###

biological target: Luciferin 4-monooxygenase (Photinus pyralis) (UniProt P08659); test: Primary firefly luciferase (FLuc) qHTS assay for identification of artifact compounds. (AID 1845220); conditions: purified firefly luciferase, luminescence, 5 min; series mostly up to 54.1 µM; also: nearly all actives have a fitted effect of over 60% in size
Calls of active or inactive are those of the source. Calls follow the shape of the dose curve; as a rule, active = well fitted inhibition curve with a large enough effect; inconclusive = small, poorly fitted or top-dose-only effect; inactive = flat fitted curve, though single readings scatter.
Observed property: outcome

- Compound: "CC(=O)O[C@@H]1[C@H](O[C@@H]2OC[C@](O)(CO)[C@H]2O)[C@@H](O[C@@H]2O[C@@H](C)[C@H](O)[C@@H](O[C@@H]3O[C@H](CO)[C@@H](O)[C@H](O)[C@H]3O)[C@H]2O)[C@H](OC(=O)[C@]23CCC(C)(C)C[C@H]2C2=CCC4[C@@]5(C)C[C@H](O)[C@H](O[C@@H]6O[C@H](C(=O)O)[C@@H](O)[C@H](O)[C@H]6O)[C@@](C)(C(=O)O)C5CC[C@@]4(C)[C@]2(C)CC3)O[C@@H]1C (some centres not stated)"
  Observed property: "outcome"
  Result: "inactive [at 11.6 µM]"
- Compound: "CC1(C)CC[C@]2(C(=O)O[C@@H]3O[C@H](CO[C@@H]4O[C@H](CO)[C@@H](O)[C@H](O)[C@H]4O)[C@@H](O)[C@H](O[C@@H]4O[C@H](CO)[C@@H](O)[C@H](O)[C@H]4O)[C@H]3O)CC[C@]3(C)C(=CCC4[C@@]5(C)CC[C@H](O[C@@H]6OC[C@@H](O)[C@H](O)[C@H]6O)[C@@](C)(C(=O)O)C5CC[C@]43C)[C@@H]2C1 (some centres not stated)"
  Observed property: "outcome"
  Result: "inactive [at 11.6 µM]"

Value source: PubChem BioAssay (NCATS)
